Reference source: the supplement of paper PMC10567573

B1: C10orf62 (parent)
chain: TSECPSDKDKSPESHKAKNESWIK

Variants of: B1
Procedure summary: protein stability index of a GFP-peptide fusion (GPS, HEK-293T) (PSI 1-6); higher = more stable;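 further: lentivirally expressed fusions sorted by FACS into six bins by GFP to DsRed ratio, PSI derived from sequencing read proportions per bin multiplied by bin number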
Protocol conditions: c terminus: a fixed tail appended

Change: S6Y
protein stability index: 2.82
--
Change: D9Q
protein stability index: 3.27
--
Change: E13G
protein stability index: 2.89
--
Change: A17G
protein stability index: 3.27
--
Change: K8I
protein stability index: 3.48
--
Change: A17E
protein stability index: 3.88
--
Change: S2G
protein stability index: 3.26
--
Change: S11G
protein stability index: 3
--
Change: D9C
protein stability index: 2.46
--
Change: P12T
protein stability index: 3.54
--
Change: K8L
protein stability index: 3.38
--
Change: S14Y
protein stability index: 3
--
Change: T1E
protein stability index: 3.09
--
Change: S2D
protein stability index: 3.7
--
Change: T1F
protein stability index: 3.08
--
Change: E20D
protein stability index: 4.02
--
Change: D9A
protein stability index: 2.68
--
Change: E20K
protein stability index: 4.37
--
Change: W22H
protein stability index: 5.83
--
Change: S2R
protein stability index: 4.43
--
Change: D7T
protein stability index: 3.14
--
Change: K18P
protein stability index: 3.74
--
Change: K10Q
protein stability index: 3.46
--
Change: S21C
protein stability index: 4.11
--
Change: S2P
protein stability index: 3.17
--
Change: P5M
protein stability index: 3.08
--
Change: H15S
protein stability index: 3.61
--
Change: E3N
protein stability index: 3.36
--
Change: K10M
protein stability index: 3.63
--
Change: S11T
protein stability index: 3.85
--
Change: I23L
protein stability index: 4.46
--
Change: P5S
protein stability index: 3
--
Change: I23G
protein stability index: 5.32
--
Change: E13Y
protein stability index: 2.98
--
Change: E13K
protein stability index: 3.08
